# System: A/Puerto Rico/8/34 (H1N1)
# Settings: ratio of CC10 to EC90
Endpoint Name: SI90 PR8

Exercise: Query SI90 PR8 for O=C(Nc1ccn([C@@H]2O[C@H](CO)[C@@H](O)C2(F)F)c(=O)n1)c1ccccn1 [Compound 2a]
Solution: 5.5

Exercise: Provide measured SI90 PR8 value, entry: CCC(CC)O[C@@H]1C=C(C(=O)O)C[C@H](N)[C@H]1NC(C)=O [Oseltamivir carboxylate, reference compound]
Solution: > 24.0

Exercise: Given O=C(Nc1ccn([C@@H]2O[C@H](CO)[C@@H](O)C2(F)F)c(=O)n1)c1ccc(F)nc1 [Compound 3c] , respond with its SI90 PR8.
Solution: 20.0

Exercise: Answer with the recorded SI90 PR8 of O=C(Nc1ccn([C@@H]2O[C@H](CO)[C@@H](O)C2(F)F)c(=O)n1)c1ccc(F)cn1 [Compound 2f] only.
Solution: > 11.1

====

# System: B/Lee/40
# Experiment: CPE reduction antiviral assay in Lee-infected MDCK cells (MTT)
# Assay type: cell-based, influenza B virus
# Settings: MDCK, MOI 0.001, day 3; viability of infected cells to 50%; read-out: EC50 Lee
Endpoint Name: EC50 (nM)
A number alone suffices; assume nM.

Exercise: Using the record for Nc1ccn([C@@H]2O[C@H](CO)[C@@H](O)C2(F)F)c(=O)n1 [Gemcitabine, 2′,2′-difluoro-2′-deoxycytidine] , state its measured EC50.
Solution: 400

====

# Tested on: SARS-CoV-2
# Experiment: Anti-SARS-CoV-2 immunofluorescence assay (anti-S) in Calu-3 cells
# Assay type: cell-based
# Settings: Severe acute respiratory syndrome coronavirus 2, 48 h; Calu-3, MOI 0.05, 2 days
Endpoint Name: EC50 (nM)
# unit: nM | format: bare number

Exercise: Please give the documented EC50 of Nc1ccc(C(=O)Nc2ccn([C@@H]3O[C@H](CO)[C@@H](O)C3(F)F)c(=O)n2)nc1 [Compound 2h]
Solution: 460

====

For each of the molecules below, state its SI90 Lee.
# Test system: B/Lee/40
# Experiment: CPE reduction antiviral assay in Lee-infected MDCK cells (MTT)
# Type: cell-based, influenza B virus
# Settings: ratio of CC10 to EC90
Just the number.

Exercise: Complete the entry with SI90 Lee for O=C(Nc1ccn([C@@H]2O[C@H](CO)[C@@H](O)C2(F)F)c(=O)n1)c1ccc(F)nc1 [Compound 3c]
Solution: 11.1

Exercise: Note down SI90 Lee recorded for O=C(Nc1ccn([C@@H]2O[C@H](CO)[C@@H](O)C2(F)F)c(=O)n1)c1ccc([N+](=O)[O-])cn1 [Compound 2i]
Solution: 11.0

Exercise: Input Cc1ccc(C(=O)Nc2ccn([C@@H]3O[C@H](CO)[C@@H](O)C3(F)F)c(=O)n2)nc1 [Compound 2b] , output reported SI90 Lee.
Solution: 4.8

Exercise: Determine its reported SI90 Lee: O=C(Nc1ccn([C@@H]2O[C@H](CO)[C@@H](O)C2(F)F)c(=O)n1)c1ccccn1 [Compound 2a]
Solution: 4.4

Exercise: Read the entry Cc1ccc(C(=O)Nc2ccn([C@@H]3O[C@H](CO)[C@@H](O)C3(F)F)c(=O)n2)cn1 [Compound 3b] and write its reported SI90 Lee.
Solution: 6.0

====

# Experiment: in vitro
# Settings: human
Endpoint Name: CC50 at 2 days

Exercise: Please report CC50 at 2 days for the following molecule: Nc1ccc(C(=O)Nc2ccn([C@@H]3O[C@H](CO)[C@@H](O)C3(F)F)c(=O)n2)nc1
Solution: > 100 µM

====

# System: A/Hong Kong/8/68 (H3N2)
# Settings: ratio of CC50 to EC50
Endpoint Name: SI50 HK

Exercise: // output SI50 HK; input O=C(Nc1ccn([C@@H]2O[C@H](CO)[C@@H](O)C2(F)F)c(=O)n1)c1ccccc1 ; system A/Hong Kong/8/68 (H3N2)
Solution: > 5.5

Exercise: Enter recorded SI50 HK with A/Hong Kong/8/68 (H3N2) for Nc1ccn([C@@H]2O[C@H](CO)[C@@H](O)C2(F)F)c(=O)n1 here.
Solution: > 883.5

Exercise: Give measured SI50 HK for Cc1ccc(C(=O)Nc2ccn([C@@H]3O[C@H](CO)[C@@H](O)C3(F)F)c(=O)n2)nc1 (A/Hong Kong/8/68 (H3N2)).
Solution: > 5.8

Exercise: Give SI50 HK for O=C(Nc1ccn([C@@H]2O[C@H](CO)[C@@H](O)C2(F)F)c(=O)n1)c1ccc(C(F)(F)F)nc1 tested on A/Hong Kong/8/68 (H3N2).
Solution: > 84.7

Exercise: Quote A/Hong Kong/8/68 (H3N2) SI50 HK for entry NC12CC3CC(CC(C3)C1)C2 [Amantadine, reference compound] .
Solution: > 19.5

Exercise: Provide SI50 HK, system A/Hong Kong/8/68 (H3N2), entry NC(=O)c1nc(F)c[nH]c1=O [Favipiravir, reference compound]
Solution: > 100.0

Exercise: For A/Hong Kong/8/68 (H3N2), give the measured SI50 HK of the entry O=C(Nc1ccn([C@@H]2O[C@H](CO)[C@@H](O)C2(F)F)c(=O)n1)c1ccccn1
Solution: > 462.2

Exercise: Quote SI50 HK with test system A/Hong Kong/8/68 (H3N2) for Cc1ccc(C(=O)Nc2ccn([C@@H]3O[C@H](CO)[C@@H](O)C3(F)F)c(=O)n2)cn1
Solution: > 437.2

Exercise: State the measured SI50 HK (A/Hong Kong/8/68 (H3N2)) of COc1ccc(C(=O)Nc2ccn([C@@H]3O[C@H](CO)[C@@H](O)C3(F)F)c(=O)n2)nc1
Solution: > 16.1

Exercise: Report SI50 HK under test system A/Hong Kong/8/68 (H3N2) for COc1ccc(C(=O)Nc2ccn([C@@H]3O[C@H](CO)[C@@H](O)C3(F)F)c(=O)n2)cn1 .
Solution: > 12.5

Exercise: Provide A/Hong Kong/8/68 (H3N2) SI50 HK reading for CCC(CC)O[C@@H]1C=C(C(=O)O)C[C@H](N)[C@H]1NC(C)=O [Oseltamivir carboxylate, reference compound] .
Solution: > 6,000

Exercise: Please indicate recorded SI50 HK of O=C(Nc1ccn([C@@H]2O[C@H](CO)[C@@H](O)C2(F)F)c(=O)n1)c1ccc([N+](=O)[O-])cn1 measured with A/Hong Kong/8/68 (H3N2).
Solution: > 518.5

====

# Experiment: Cytotoxicity to mock-infected MDCK cells (MTT)
# Settings: dog, mock-infected MDCK cells
For each record, write down the corresponding CC50 at 3 days.

Exercise: Look up CC50 at 3 days of NC12CC3CC(CC(C3)C1)C2 [Amantadine, reference compound] and report it.
Solution: > 300 µM

Exercise: Assign CC50 at 3 days to the following record: NC(=O)c1ncn([C@@H]2O[C@H](CO)[C@@H](O)[C@H]2O)n1 [Ribavirin, reference compound]
Solution: > 300 µM

Exercise: State its CC50 at 3 days for this molecule: Nc1ccn([C@@H]2O[C@H](CO)[C@@H](O)C2(F)F)c(=O)n1
Solution: > 300 µM

====

# Tested on: MDCK cells
# Settings: dog, 3 days
Endpoint Name: CC10 (µM)
Answer with a number only, understood to be in µM.

Exercise: Look up and report measured CC10 (MDCK cells) for the following compound: O=C(Nc1ccn([C@@H]2O[C@H](CO)[C@@H](O)C2(F)F)c(=O)n1)c1ccc(C(F)(F)F)nc1
Solution: 7.9

Exercise: Jot down CC10 (MDCK cells) of COc1ccc(C(=O)Nc2ccn([C@@H]3O[C@H](CO)[C@@H](O)C3(F)F)c(=O)n2)cn1 .
Solution: 129.7

Exercise: Answer briefly: CC10 recorded on MDCK cells for Cc1nc(C(F)(F)F)ccc1C(=O)Nc1ccn([C@@H]2O[C@H](CO)[C@@H](O)C2(F)F)c(=O)n1
Solution: 8.7

Exercise: Please tell me the measured CC10 for Cc1ccc(C(=O)Nc2ccn([C@@H]3O[C@H](CO)[C@@H](O)C3(F)F)c(=O)n2)nc1 ; system: MDCK cells.
Solution: 209.2

Exercise: Write CC10 of O=C(Nc1ccn([C@@H]2O[C@H](CO)[C@@H](O)C2(F)F)c(=O)n1)c1ccc(Cl)nc1 ; system used: MDCK cells
Solution: 91.1

Exercise: State the measured CC10 (MDCK cells) of O=C(Nc1ccn([C@@H]2O[C@H](CO)[C@@H](O)C2(F)F)c(=O)n1)c1ccc([N+](=O)[O-])cn1
Solution: 17.9

====

# System: A/Puerto Rico/8/34 (H1N1)
# Settings: ratio of CC10 to EC90
Endpoint Name: SI90 PR8
Keep it simple and answer with nothing but the number.

Exercise: Tell me SI90 PR8 reported for O=C(Nc1ccn([C@@H]2O[C@H](CO)[C@@H](O)C2(F)F)c(=O)n1)c1ccc([N+](=O)[O-])cn1 [Compound 2i]
Solution: 8.1

Exercise: Assign SI90 PR8 to the following record: O=C(Nc1ccn([C@@H]2O[C@H](CO)[C@@H](O)C2(F)F)c(=O)n1)c1cccnc1 [Compound 3a]
Solution: 2.7

Exercise: Look up and state reported SI90 PR8 for Cc1ccc(C(=O)Nc2ccn([C@@H]3O[C@H](CO)[C@@H](O)C3(F)F)c(=O)n2)cn1 [Compound 3b]
Solution: 5.7

Exercise: Name the recorded SI90 PR8 of the compound listed here: Cc1ccc(C(=O)Nc2ccn([C@@H]3O[C@H](CO)[C@@H](O)C3(F)F)c(=O)n2)nc1 [Compound 2b]
Solution: 8.3
